The values you see were collected from patent US8734776B2.

# Tested on: encephelomyocarditis virus
# ASSAY NAME: Antiviral assay: cytopathic effect in HeLa cells
# Assay type: cell-based, human
# RUN CONDITIONS: relative CM concentration .125X
PROPERTY MEASURED: Percentage Cytopathic Effect (%)

MOLECULE	PROPERTY MEASURED	REPORTED
zcyto24: mouse IL-28, SEQ ID NO:8 (protein, listed as Mus musculus, SIGNAL (1)...(28)) MKPETAGGHMLLLLLPLLLAAVLTRTQADPVPRATRLPVEAKDCHIAQFKSLSPKELQAFKKAKDAIEKRLLEKDLRCSSHLFPRAWDLKQLQVQERPKALQAEVALTLKVWENMTDSALATILGQPLHTLSHIHSQLQTCTQLQATAEPRSPSRRLSRWLHRLQEAQSKETPGCLEASVTSNLFRLLTRDLKCVANGDQCV	Percentage Cytopathic Effect	0
IL-28A: human IL-28A, previously designated zcyto20, SEQ ID NO:2 (protein, listed as Homo sapiens, SIGNAL (1)...(25)) MKLDMTGDCTPVLVLMAAVLTVTGAVPVARLHGALPDARGCHIAQFKSLSPQELQAFKRAKDALEESLLLKDCRCHSRLFPRTWDLRQLQVRERPMALEAELALTLKVLEATADTDPALVDVLDQPLHTLHHILSQFRACIQPQPTAGPRTRGRLHHWLYRLQEAPKKESPGCLEASVTFNLFRLLTRDLNCVASGDLCV	Percentage Cytopathic Effect	0
zcyto25: mouse IL-28, SEQ ID NO:10 (protein, listed as Mus musculus, SIGNAL (1)...(28)) MKPETAGGHMLLLLLPLLLAAVLTRTQADPVPRATRLPVEAKDCHIAQFKSLSPKELQAFKKAKGAIEKRLLEKDMRCSSHLISRAWDLKQLQVQERPKALQAEVALTLKVWENINDSALTTILGQPLHTLSHIHSQLQTCTQLQATAEPKPPSRRLSRWLHRLQEAQSKETPGCLEDSVTSNLFQLLLRDLKCVASGDQCV	Percentage Cytopathic Effect	0
IL-29: human IL-29, previously designated zcyto21, SEQ ID NO:4 (protein, listed as Homo sapiens, SIGNAL (1)...(19)) MAAAWTVVLVTLVLGLAVAGPVPTSKPTTTGKGCHIGRFKSLSPQELASFKKARDALEESLKLKNWSCSSPVFPGNWDLRLLQVRERPVALEAELALTLKVLEAAAGPALEDVLDQPLHTLHHILSQLQACIQPQPTAGPRPRGRLHHWLHRLQEAPKKESAGCLEASVTFNLFRLLTRDLKYVADGNLCLRTSTHPEST	Percentage Cytopathic Effect	5
IL-28B: human IL-28B, previously designated zcyto22, SEQ ID NO:6 (protein, listed as Homo sapiens, SIGNAL (1)...(25)) MKLDMTGDCMPVLVLMAAVLTVTGAVPVARLRGALPDARGCHIAQFKSLSPQELQAFKRAKDALEESLLLKDCKCRSRLFPRTWDLRQLQVRERPVALEAELALTLKVLEATADTDPALGDVLDQPLHTLHHILSQLRACIQPQPTAGPRTRGRLHHWLHRLQEAPKKESPGCLEASVTFNLFRLLTRDLNCVASGDLCV	Percentage Cytopathic Effect	0
